assay: budding yeast growth modifiers under rapamycin – strain BY4716, OD600, 96 h, primary screen (AID 1091); further: test concentration not given here; details: S. cerevisiae BY4716 + rapamycin, higher = more signal, called active from +8 up or from −8 down
Each item that follows carries a reported z-score.
The answer should be a number; do not append a unit.

Would you please look over these solved cases?
| compound | z-score |
| --- | --- |
| CCOC(=O)C1=CC[C@@H](c2ccccc2)N(S(=O)(=O)c2ccc(C)cc2)[C@H]1c1ccccc1I | 0.607 |
| OCCCC1=CC(c2ccc(CN3CCCC3)cc2)N(Cc2cccc(OC(F)(F)F)c2)CC1 (configuration not stated) | -2.62 |

Prompt line: // returns reported z-score for input O=C(O)[C@H](Cc1ccccc1)n1cc(C2(O)CCCCC2)nn1
Response line: -0.444

Prompt line: // returns reported z-score for input CCCCC(O)C1C=CC2C(=O)N(c3ccccc3)C(=O)C2N1Nc1ccc(C#N)cc1 (configuration not stated)
Response line: 1.64

###

target: Streptavidin (Streptomyces avidinii) (UniProt P22629); test: compounds binding control protein streptavidin – biophysical, small-molecule microarray, 635/667 nm fluorescence, artefact control for SMM compound annotation, primary screen (AID 1147); conditions: higher = more signal;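 further: signal reflects streptavidin binding to arrayed compounds as a control protein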
Sequence (P22629 whole entry, looked up): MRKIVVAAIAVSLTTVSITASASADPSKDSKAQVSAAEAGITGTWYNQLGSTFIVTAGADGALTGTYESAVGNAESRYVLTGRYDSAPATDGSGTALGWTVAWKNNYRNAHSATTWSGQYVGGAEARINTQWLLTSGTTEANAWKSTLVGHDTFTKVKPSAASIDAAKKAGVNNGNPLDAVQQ
Each item that follows carries a reported composite z-score.
The answer should be a number; do not append a unit.

Would you please look over these solved cases?
| molecule smiles | result |
| --- | --- |
| CC[C@@H]1C=C(C(=O)O)[C@H](c2ccc(OC)cc2)N1S(=O)(=O)c1ccc(C)cc1 | 0.114 |
| COC(=O)[C@@]1(Cc2ccc(F)cc2)[C@H]2c3cc(C(=O)N(C)C)n(C)c3C[C@H]2CN1C(=O)c1ccccc1 | 0.069 |
| CN(C)CCCNC(=O)[C@@]1(Cc2ccccc2I)c2ccccc2C(=O)N(C2CCCCC2)[C@H]1c1ccc(CO)cc1 | 1.19 |

Now turn to the next compound.
Prompt line: Could you share what composite z-score was measured for C=CCN1C(=O)[C@]2(O[C@H](CCn3cc([C@H](O)c4ccccc4)nn3)[C@@H]([Si](C)(C)c3ccc(OC)cc3)[C@@H]2C)c2cc(NC(=O)c3ccc(OC)cc3)ccc21 , tested on Streptavidin (Streptomyces avidinii) (UniProt P22629)?
Response line: -0.0759

###

target: Dickkopf-related protein 1 (Homo sapiens); assay: small molecules binding DKK1 protein – biochemical, small-molecule microarray, 635 nm fluorescence scan, primary screen (AID 1106); conditions: higher = more signal;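 further: score merges emission near 667 nm with signal to noise over three replicate slides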
Returns yes (1) if the recorded composite z-score is greater than or equal to -0.6, and no (0) otherwise.

Prompt line: Say whether O=C1C[C@@](C(=O)NC2CC2)(c2ccc([N+](=O)[O-])cc2)[C@@H](c2ccc(CO)cc2)N1C1CCCCC1 shows composite z-score of -0.6 or more.
Response line: yes (1)

Prompt line: Say whether O=C1C[C@]2(c3ccc([N+](=O)[O-])cc3)C(=O)N(C3CC3)c3cc(CO)ccc3[C@H]2N1C1CCCCC1 shows composite z-score of -0.6 or more.
Response line: yes (1)

###

assay: binders from COS7 lysate, DM2A8 probe, primary screen, torsin A project, cell lysate, small-molecule microarray, fluorescence 635/667 (AID 1065); conditions: higher = more signal, COS7 lysate expressing mutant human TOR1A
reported metric: composite z-score
The answer should be a number; do not append a unit.

| molecule smiles | reported metric | result |
| --- | --- | --- |
| COC(=O)[C@@]1(Cc2ccc(OC)cc2)[C@H]2c3cc(C(=O)N(C)C)[nH]c3C[C@H]2CN1C(=O)c1ccccc1 | composite z-score | -0.884 |
| O=C1[C@H]2C=C(I)[C@H](C[C@@H]2OCCCCCCO)[C@@]12CO2 | composite z-score | 0.249 |
| O=C(NCCN1CCOCC1)[C@@H]1c2ccccc2C(=O)N(Cc2ccccc2C(F)(F)F)[C@H]1c1ccc(CO)cc1 | composite z-score | -0.438 |

Now turn to the next compound.
Prompt line: // returns reported composite z-score for input CCOC(=O)C1=CC[C@@H](c2ccccc2)N(S(=O)(=O)c2ccc(C)cc2)[C@H]1c1ccccc1I
Response line: 0.215
